biological target: UniProtKB P51617; assay: RBC HotSpot Kinase Assay, IRAK1; conditions: isolated kinase enzyme, 33P-ATP, P81 filter-binding
// IC50 lookup, one value per entry
Your answer should be a plain number; it is taken to be in µM.

Param item = CC(O)(c1cn2c(-c3nc(N[C@@H]4CCCNC4)ncc3F)cnc2cn1)C(F)(F)F (single isomer, unassigned) [Compound 131a] ; retrieve measured IC50.
0.015

Form field: reported IC50 of F[C@H]1CNC[C@@H]1Nc1cncc(-c2cnc3cc(OC4CC4)c(C4CC4)nn23)n1 [Compound 14a]
0.117

Sample COc1cc2ncc(-c3nc(N[C@H]4CNCC[C@@H]4F)ncc3F)n2nc1C1CC(C)(C)C1 [Compound 57a] — what was its IC50?
0.002

***
Item under review: COc1cc2ncc(-c3nc(N[C@@H]4CCCNC4)ncc3F)n2nc1C12CC(C1)C2 [Compound 68a] . Reported IC50?
0.0009

So what does the record say about IC50 for Fc1cnc(N[C@@H]2CCCNC2)nc1-c1cnc2cnc(C3COC3)cn12 [Compound 118a] ?
0.732

Consider the compound COc1cc2ncc(-c3ccnc(N[C@H]4CNCC[C@@H]4F)n3)n2nc1C1COC1 [Compound 97a] and give its measured IC50.
0.361

Given the compound COc1cc2ncc(-c3nc(N[C@@H]4CCCNC4)ncc3F)n2nc1C(C)(C)O [Compound 43a] , what is its reported IC50?
0.05

Param item = FC(F)COc1cc2ncc(-c3ccnc(N[C@H]4CNC[C@@H]4F)n3)n2nc1C1CC1 ; retrieve measured IC50.
0.029

====

Protein target, amino acids: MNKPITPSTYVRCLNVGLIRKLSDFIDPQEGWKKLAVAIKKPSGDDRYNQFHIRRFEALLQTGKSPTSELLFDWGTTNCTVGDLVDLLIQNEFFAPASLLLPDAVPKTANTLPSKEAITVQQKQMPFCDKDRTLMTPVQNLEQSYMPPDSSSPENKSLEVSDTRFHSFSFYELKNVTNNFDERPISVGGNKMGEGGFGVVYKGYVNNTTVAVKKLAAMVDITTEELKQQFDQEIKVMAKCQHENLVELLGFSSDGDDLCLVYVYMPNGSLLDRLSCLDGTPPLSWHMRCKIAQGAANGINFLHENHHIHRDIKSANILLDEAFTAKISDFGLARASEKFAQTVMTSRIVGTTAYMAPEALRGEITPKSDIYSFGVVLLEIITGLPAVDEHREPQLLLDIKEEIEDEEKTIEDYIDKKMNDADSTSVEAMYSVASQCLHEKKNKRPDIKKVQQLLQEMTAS
result-type: Kd (nM)
Write it as a number; the unit nM goes unstated.

Quick one: Kd of FC(F)COc1cc2ncc(-c3ccnc(N[C@H]4CNCC[C@@H]4F)n3)n2nc1C1CC1 ?
0.59

Return reported Kd; argument: COc1cc2ncc(-c3nc(N[C@H]4CNCC[C@@H]4F)ncc3F)n2nc1C(C)(C)O [Compound 45a]
0.58

Recorded Kd of CC(C)(O)c1cn2c(-c3nc(N[C@H]4CNCC[C@@H]4F)ncc3F)cnc2cn1 [Compound 100a] , please.
1.5

I'd like to know its Kd. The compound in question is COc1cc2ncc(-c3nc(N[C@H]4CNCC[C@@H]4F)ncc3F)n2nc1N1CCCS1(=O)=O [Compound 112a]
0.61

====

Readings of pIC50 for the listed molecules
Target: FLT3 (Homo sapiens)
Sequence (P36888 27-993): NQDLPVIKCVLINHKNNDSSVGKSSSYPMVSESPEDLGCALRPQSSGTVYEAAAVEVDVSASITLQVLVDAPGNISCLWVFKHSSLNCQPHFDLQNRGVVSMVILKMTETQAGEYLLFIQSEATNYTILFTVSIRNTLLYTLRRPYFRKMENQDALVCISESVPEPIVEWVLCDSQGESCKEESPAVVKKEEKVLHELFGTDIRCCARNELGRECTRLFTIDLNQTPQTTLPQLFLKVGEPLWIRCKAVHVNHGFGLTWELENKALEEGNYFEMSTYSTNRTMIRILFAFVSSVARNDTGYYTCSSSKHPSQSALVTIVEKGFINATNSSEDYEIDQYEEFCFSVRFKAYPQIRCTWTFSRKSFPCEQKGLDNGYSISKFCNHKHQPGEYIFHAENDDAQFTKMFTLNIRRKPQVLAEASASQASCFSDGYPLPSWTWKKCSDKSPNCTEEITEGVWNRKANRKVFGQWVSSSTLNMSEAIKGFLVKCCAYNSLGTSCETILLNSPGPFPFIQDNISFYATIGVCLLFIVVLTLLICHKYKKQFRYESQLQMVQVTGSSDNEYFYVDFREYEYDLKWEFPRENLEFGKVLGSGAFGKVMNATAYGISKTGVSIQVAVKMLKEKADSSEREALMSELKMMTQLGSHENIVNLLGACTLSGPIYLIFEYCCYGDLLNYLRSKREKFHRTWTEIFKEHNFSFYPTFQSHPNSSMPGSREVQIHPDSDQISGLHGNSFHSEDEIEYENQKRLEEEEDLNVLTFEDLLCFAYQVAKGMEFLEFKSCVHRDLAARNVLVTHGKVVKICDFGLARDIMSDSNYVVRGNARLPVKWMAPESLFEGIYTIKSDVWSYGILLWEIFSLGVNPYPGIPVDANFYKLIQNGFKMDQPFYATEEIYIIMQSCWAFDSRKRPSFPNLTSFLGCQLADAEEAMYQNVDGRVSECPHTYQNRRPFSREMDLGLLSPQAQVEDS
Experiment: RBC HotSpot Kinase Assay, FLT3
Format: biochemical
Parameters: purchased Reaction Biology (RBC HotSpot)
Conditions: isolated kinase enzyme, 33P-ATP, P81 filter-binding
Source text: This assay uses the isolated kinase enzyme. […] Unlike kinase binding assays that measure competition for ATP, the HotSpot Kinase Assay is a functional assay that measures catalytic activity; as such it measures relative functional potency regardless of the mechanism of enzyme inhibition. This assay uses the form of the various enzymes that are easiest to express, which may not necessarily be the form of the enzyme that exist in the cell. […]
pIC50: −log10 of the molar value.

# query: pIC50 of entry COc1cc2ncc(-c3nc(N[C@H]4CNCC[C@@H]4F)ncc3F)n2nc1C1CCCCC1 [Compound 66a]
> 9.30

Which pIC50 reading was recorded for the molecule COc1cc2ncc(-c3ccnc(N[C@@H]4CCCNC4)n3)n2nc1C(C)(C)O [Compound 42a] ?
8.00

Which pIC50 reading was recorded for the molecule COc1cc2ncc(-c3nc(N[C@H]4CNC[C@@H]4F)ncc3F)n2nc1C1CCC1 [Compound 52a] ?
> 9.30

# get_value(readout='pIC50', item= COc1cnc(N[C@H]2CNC[C@@H]2F)nc1-c1cnc2cc(OC)c(C3CC3)nn12 [Compound 104a] )
7.85

pIC50 lookup needed for COc1cc2ncc(-c3nc(N[C@H]4CNCC[C@@H]4F)ncc3F)n2nc1C1COC1 [Compound 92a] , thanks.
> 9.30

Others:
Dear colleague, I am looking for the recorded pIC50 of the following molecule: COc1cc2ncc(-c3nc(N[C@H]4CNC[C@@H]4F)ncc3F)n2nc1C1CC(F)(F)C1 [Compound 50a]
> 9.30

What value of pIC50 has been recorded for this entry: CC(O)(c1ccc2ncc(-c3nc(N[C@@H]4CCCNC4)ncc3F)n2c1)C(F)(F)F (single isomer, unassigned) [Compound 37a]
> 9.30

# pIC50 lookup, item COc1cc2ncc(-c3nc(N[C@@H]4CCCNC4)ncc3F)n2nc1C1COC1 [Compound 94a]
> 9.30

====

Here, each record is paired with measured pIC50 data.
target: IRAK1 (Homo sapiens); test: RBC HotSpot Kinase Assay, IRAK1; conditions: isolated kinase enzyme, 33P-ATP, P81 filter-binding
Sequence (P51617 whole entry): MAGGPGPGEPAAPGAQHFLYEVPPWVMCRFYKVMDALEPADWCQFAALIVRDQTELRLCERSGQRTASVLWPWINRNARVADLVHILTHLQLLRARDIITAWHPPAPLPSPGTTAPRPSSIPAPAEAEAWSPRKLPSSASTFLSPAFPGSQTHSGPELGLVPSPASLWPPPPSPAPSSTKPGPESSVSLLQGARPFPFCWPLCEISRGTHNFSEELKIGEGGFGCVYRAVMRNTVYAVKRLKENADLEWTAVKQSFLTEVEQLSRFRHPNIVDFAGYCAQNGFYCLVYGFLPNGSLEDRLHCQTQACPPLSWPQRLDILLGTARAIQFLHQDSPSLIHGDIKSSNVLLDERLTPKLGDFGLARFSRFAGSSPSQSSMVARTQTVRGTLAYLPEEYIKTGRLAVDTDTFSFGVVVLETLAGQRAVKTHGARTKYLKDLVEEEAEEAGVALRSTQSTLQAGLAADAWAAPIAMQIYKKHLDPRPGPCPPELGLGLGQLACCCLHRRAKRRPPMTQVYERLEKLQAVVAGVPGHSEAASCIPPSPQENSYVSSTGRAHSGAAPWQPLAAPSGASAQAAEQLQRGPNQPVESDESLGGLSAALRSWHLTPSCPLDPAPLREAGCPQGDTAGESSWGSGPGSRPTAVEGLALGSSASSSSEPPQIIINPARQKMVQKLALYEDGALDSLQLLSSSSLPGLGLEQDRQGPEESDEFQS
Interpret pIC50 as the negative base-10 log of the concentration measured in mol/L.

Name the reported pIC50 value associated with the compound COc1cc2ncc(-c3nc(N[C@@H]4CCCNC4)ncc3F)n2nc1N1CCOCC1 [Compound 120a]
8.00

# query: pIC50 of entry COc1cc2ncc(-c3ccnc(N[C@H]4CNCC[C@@H]4F)n3)n2nc1C1CCO1 (stereo partly drawn) [Compound 109a]
6.62

For the compound COc1cc2ncc(-c3ccnc(N[C@@H]4CCCNC4)n3)n2nc1C1CC(C)(C)C1 [Compound 81a] , what pIC50 is on record?
7.31

Give the measured pIC50 of COc1cc2ncc(-c3nc(N[C@H]4CNC[C@@H]4F)ncc3F)n2nc1C1CC(C)(C)C1 [Compound 55a] .
8.30

====

system: MOLM14 F691L cells; assay: MOLM14 F691L cell viability assay (Cell Titer Glo); format: cell-based; conditions: Homo sapiens, MOLM-14; cell viability, Cell Titer Glo, 48 hours; read-out: MOLM14 F691L IC50
IC50 values by entry
Express your answer in nM, writing the number without its unit.

Please look up its IC50: COc1cc2ncc(-c3ccnc(N[C@H]4CNC[C@@H]4F)n3)n2nc1C1CC(C)(C)C1 [Compound 80a]
798

Others:
// returns reported IC50 for input COc1cc2ncc(-c3ccnc(N[C@@H]4CCCNC4)n3)n2nc1C1CC(C)(C)C1 [Compound 81a]
1260

Field request: IC50 | item: COc1cc2ncc(-c3nc(N[C@@H]4CCCNC4)ncc3F)n2nc1N1CCS(=O)(=O)CC1 [Compound 124a]
1130

Field request: IC50 | item: COc1cnc(N[C@@H]2CCCNC2)nc1-c1cnc2cc(OC)c(C3CC3)nn12 [Compound 105a]
6340

# input compound: COc1cc2ncc(-c3nc(N[C@H]4CNCC[C@@H]4F)ncc3F)n2nc1C12CC(C1)C2 [Compound 69a] ; wanted: its IC50
25

State the recorded IC50 for this entry: COc1cnc(N[C@H]2CNC[C@@H]2F)nc1-c1cnc2cc(OC)c(C3CC3)nn12 [Compound 104a]
6340

// returns reported IC50 for input COc1cc2ncc(-c3nc(N[C@H]4CNCC[C@@H]4F)ncc3F)n2nc1C1CC1
6
